Could you please report measured MIC for the items listed next?
Test system: Enterococcus faecalis
experiment_description: Antibacterial activity against Enterococcus faecalis assessed as growth inhibition after 18 hrs by broth microdilution method
Type: functional

structure_smiles: CC(C)c1cc(=O)n2c3ccccc3n(Cc3cc(=O)oc4ccc(Br)cc34)c2n1
assay_result: 0.8 µg/mL
//
structure_smiles: Cc1ccc2oc(=O)cc(Cn3c4ccccc4n4c(=O)cc(C(F)(F)F)nc34)c2c1
assay_result: 0.4 µg/mL
//
structure_smiles: O=c1cc(-c2ccc(F)cc2)nc2[nH]c3ccccc3n12
assay_result: 0.2 µg/mL
//
structure_smiles: O=c1cc(Cn2c3ccccc3n3c(=O)cc(C(F)(F)F)nc23)c2cc(F)ccc2o1
assay_result: 0.8 µg/mL
//
structure_smiles: COc1ccc2oc(=O)cc(Cn3c4ccccc4n4c(=O)cc(C(C)C)nc34)c2c1
assay_result: 0.4 µg/mL

Batch of 4 compounds: report MIC for each.
1. CC(C)c1cc(O)n2c(n1)nc1ccccc12
2. Cc1cc(C)c2oc(=O)cc(Cn3c4ccccc4n4c(=O)cc(C(F)(F)F)nc34)c2c1
3. CC(C)c1cc(=O)n2c3ccccc3n(Cc3cc(=O)oc4ccc(F)cc34)c2n1
4. COc1ccc2oc(=O)cc(Cn3c4ccccc4n4c(=O)cc(C(F)(F)F)nc34)c2c1

A:
1: 0.2 µg/mL; 2: 0.4 µg/mL; 3: 0.4 µg/mL; 4: 0.4 µg/mL

Batch of 3 compounds: report MIC for each.
1. O=c1cc(-c2cccc(Cl)c2)nc2[nH]c3ccccc3n12
2. O=C(O)c1cn(C2CC2)c2cc(N3CCNCC3)c(F)cc2c1=O
3. O=c1cc(-c2ccc(C(F)(F)F)cc2)nc2[nH]c3ccccc3n12

A:
1: 0.2 µg/mL; 2: 2 µg/mL; 3: 0.2 µg/mL

Batch of 5 compounds: report MIC for each.
1. CC(C)c1cc(=O)n2c3ccccc3n(Cc3cc(=O)oc4ccc(Cl)cc34)c2n1
2. O=c1cc(-c2cccc(F)c2)nc2[nH]c3ccccc3n12
3. COc1ccc(-c2cc(=O)n3c(n2)[nH]c2ccccc23)cc1
4. Oc1cc(-c2ccccc2)nc2nc3ccccc3n12
5. O=c1cc(C(F)(F)F)nc2[nH]c3ccccc3n12

A:
1. 0.4 µg/mL
2. 0.2 µg/mL
3. 0.2 µg/mL
4. 0.2 µg/mL
5. 0.2 µg/mL

All figures here come from ChEMBL document CHEMBL2434922.
